Target: Cdk2(N272C) (C177A) (Homo sapiens, UniProt P24941, C177A/N272C)
Construct: poly-histidine; made in house; host or cells: E. coli
Test: Kinetic thiol consumption assay with Cdk2 mutant N272C
Assay type: binding
Design: key: rate constant with Cdk2 ÷ rate constant with model thiol (fold)
Conditions: Cdk2 N272, additional mutation C177A
Experimental: To wells containing 150 μL thiol (Cdk2 or model thiol) (5 μM) in degassed phosphate buffer (pH 8) was added immobilized TCEP beads (2% v/v). After incubation of the fluorescence plates for 1 hour at room temperature, fluorescence measurements (excitation/emission of 380/470 nm) were taken on a PerkinElmer EnVision multilabel plate reader and processed with EnVision Workstation version 1.12. Fluorescence measurements were normalized against a DMSO/thiol only control and plotted against time. […]
measurement-kind: Rate enhancement, Cdk2 N272

As a guide, the following entries are already answered.
In [3]: df
Out[3]:
                                   molecule                              study_system  measured_number
0         C=CC(=O)N1CCN(Cc2noc(C3CC3)n2)CC1  Cdk2(N272C) (C177A) (Homo sapiens, UniProt P24941, C177A/N272C)           0.3769
1                       C=CC(=O)NCCN1CCOCC1  Cdk2(N272C) (C177A) (Homo sapiens, UniProt P24941, C177A/N272C)           0.4286
2  C=CC(=O)N1CCCC(N2C(=O)CC3(CCCC3)C2=O)C1 (centres unmarked)  Cdk2(N272C) (C177A) (Homo sapiens, UniProt P24941, C177A/N272C)          0.09859
3  C=CC(=O)N1CCC2(CC1)CC2C(=O)OC (centres unmarked)  Cdk2(N272C) (C177A) (Homo sapiens, UniProt P24941, C177A/N272C)           0.7499
4  C=CC(=O)NC1CC2CC1C1CCCC21 (centres unmarked)  Cdk2(N272C) (C177A) (Homo sapiens, UniProt P24941, C177A/N272C)           0.2158

[P] C=CC(=O)N1CCN(c2cc(N3CCOCC3)ncn2)CC1
[Q] C=CC(=O)Nc1ccc(C(=O)OC)cc1
[R] C=CC(=O)N1CC2CCN(Cc3ccccc3)C2C1 (centres unmarked)
[S] C=CC(=O)N(Cc1ccc2c(c1)CCO2)C1CCCC1
[T] C=CC(=O)N1CCc2cc(-c3cccc(F)c3)ccc21
Order each entry by recorded Rate enhancement, Cdk2 N272, climbing from the minimum. Answer by writing out the labels in the requested order.
T, R, P, Q, S
(T: 0.09535, R: 0.2334, P: 0.4, Q: 0.7612, S: 7.192)
